Field: activity. Provide a value for each of the molecules that follow.
Target: Nuclear receptor subfamily 1 group D member 1 (Homo sapiens)
Test: modulators of Rev-erb alpha DNA binding, primary screen, biochemical, FITC-DNA, fluorescence polarization, uHTS (AID 1259318);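 further: 0% = DMSO wells with 35 nM protein and 100% = DMSO wells with 750 nM protein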
Conditions: Rev-erbα–FITC-DNA binding, 90 min, at 10 µM, stronger effect = higher value
Hit rate of the full screen: of about 370,000 compounds, about 3,000 (0.81%) were called active. This is one part of a sample in which actives are shown more often than they occur.
Field format: number, assumed %, no unit text.

activity for `COc1ccccc1N1CCN(CC(=O)Nc2ccnn2C2CCCC2)CC1` is 15.8

Value of activity reported for the molecule `COCc1cc(C)nc(SCC(=O)Nc2cccc(C)c2)c1C#N` is 20.6

`COc1ccc(N(Cc2ccc(N(C)C)cc2)C(=O)c2ccc(S(C)(=O)=O)cc2)cc1` yielded activity of -2.66

Memo: `CCOC(=O)c1ccc(NC(=O)c2c(N)n(C)c(=O)[nH]c2=O)cc1` , reported activity: 2.83

Short answer for `CCc1ccccc1NC(=O)c1cc(-c2ccc3c(c2)OCO3)on1` : activity was 21.2

The value of activity measured for the molecule CCC1(C)OC(=O)N(C)C1=O (configuration not stated) turned out to be -3.1

According to the records, this molecule `CC(C)C[C@@H]1Cc2[nH][nH]c(=O)c2[C@H](CCc2ccccc2)O1` displays activity of -3.25

Memo: CCOC(=O)c1c(NC(=O)CN2C(=O)NC3(CCC(C)CC3)C2=O)sc(C)c1CC (configuration not stated) , reported activity: 21.8

The molecule listed as CCCCCn1nnnc1C1c2ccccc2C(=O)N1Cc1ccco1 (configuration not stated) has a reported activity of 17.3

Per the records, this molecule ( O=C1c2ccccc2C(Nc2ccc3c(c2)OCCO3)N1Cc1ccco1 (configuration not stated) ) has activity equal to -1.18

// activity value for `CCOC(=O)c1ccc(NC(=O)c2c(NCc3ccccc3)[nH]c(=O)[nH]c2=O)cc1` : 19.9

activity reported for this molecule `CCCCCCSc1ccc(-c2nc3ccc(Cl)cn3c2NCc2ccccc2)cc1` : 24

Lab book: activity of `COc1cccc(N2CCN(CC(=O)Nc3ccnn3C3CCCC3)CC2)c1` noted as 5.07

Noted for `Cc1cccc(NC(=O)CCn2c(=O)oc3ccccc32)c1` : its activity reads 4.67

Documented activity of `COc1ccc(CN(CCN2CCOCC2)C(=O)c2ccc(C)cc2)cc1OC` : -7.19

Record `Cc1ccc(SCC2=NNC(=O)C2)cc1` , field activity: -1.27

The measured activity associated with `Cc1nn2cc(-c3ccc(Cl)cc3)cnc2c1Br` reads 5.5
